Field: melting point. Provide a value for each of the compounds that follow.

So what's the measured melting point for this one? NC(=O)N(O)CCOc1ccc2c(c1)CCN(Cc1ccc(-c3ccc(F)cc3)cc1)C2=O
171 to 172 °C

Bench note: what melting point did c1ccn(Nc2ncnc3c2ncn3-n2cccc2)c1 show?
230 to 232 °C

Requested read-out: melting point. Entry: CC(CO)(CO)NS(=O)(=O)c1cccc(NC(=O)c2cnn3c(C(F)(F)F)cc(-c4ccc(C(F)(F)F)cc4)nc23)c1
248 °C

Would you kindly share the measured melting point for CCCCCCCCCCCc1coc(N)n1 ?
55 to 58 °C

Fill in the blank: the reported melting point of Cc1ccsc1C(O)CCN(C)C (configuration not stated) is ____.
41.5 to 42.5 °C

Quick one: melting point for COc1cc2c(cc1OC)C(COCCCl)OCCC2 (configuration not stated) ?
90 to 91 °C

Looking for the measured melting point of COc1cccc2c(Cl)nc(Cl)nc12 , can you help?
155 to 157 °C

Please give the measured melting point for this compound: COc1ccc(C(=O)Nc2ccc(C(C)=O)cc2)cc1
222 to 223 °C

Item under review: CSc1nnc(C2C(=O)N(C(N)=O)c3ccc(Cl)cc32)o1 (configuration not stated) . Reported melting point?
297 to 299 °C

Quick check: melting point of O=C(O)C(=O)CC(=O)c1cccn1Cc1ccc(-c2ccccc2)cc1 ?
189 to 191 °C

Look at this compound and give its reported melting point. CCCC(CCC)C(=O)NC1CCc2ccccc21 (configuration not stated)
133 to 134 °C

Reported melting point, compound CCN1C(=O)N=NC1c1ccc(Cl)cc1 (configuration not stated) : ____
190 to 197 °C

Requested field: melting point. Item: CCOC(=O)c1cnn(-c2ccccc2)c1Br
86 to 89 °C

Looking for the measured melting point of CCOC(=O)C(OC)C(=O)Nc1cccc(Cl)c1 (configuration not stated) , can you help?
43.5 to 46.5 °C

Requested field: melting point. Item: COc1ncc(C=O)cc1Cl
152 °C

GET /values?readout=melting point&item= COc1c(Cc2ccccc2)cc(C(N)=O)c2ccccc12
199 to 201 °C

Reported melting point, compound N=C(N)c1ccc(C(=O)Nc2ccc(Nc3cc(-c4cccc5c4oc4ccccc45)ncn3)cc2)cc1 : ____
213 to 219 °C

Please look up its melting point: Cc1ccccc1OCCCc1sc(-n2ccnc2C)nc1-c1ccc(Cl)cc1
112 to 113 °C

Reported melting point, compound CC(C)N1CCC(Nc2cccnc2)CC1 : ____
101 °C

Suppose we examine the compound CCOC(=O)c1[nH]c2ccc(Cl)cc2c1S(=O)(=O)c1ccccc1 ; what melting point value has been reported?
201 to 202 °C

I have this compound here, CNC(=O)[C@@H](NC(=O)[C@@H](CC(=O)O)n1ccc(-c2ccc(C#N)cc2)c1)C(C)(C)C , and I need its recorded melting point.
138 to 140 °C

I am curious: what melting point value has been reported for CCOC(=O)CCNCC(O)COc1cccc(OC)c1 (configuration not stated) ?
72 °C
